Assay: chemical genetic growth profiling, strain panel (AID 1159580);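 further: tested at 20 µM; growth read once vehicle control cultures reached saturation at 30 °C; 1 = growth at the plate median or of vehicle wells; lower values mean less growth of the strain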
Details: S. cerevisiae deletion strains, growth OD, locus YKL048C, strain ELM1, active compounds read low
The campaign covered roughly 5,500 compounds. About 2,000 (36%) were called active. Another 18% or so got no clear call; they are omitted. The list shows a part of the results.
normalized growth by entry:
# output: bare number, no unit

Consider the worked cases shown below.
INSERT INTO measurements (compound, value_type, observed_result) VALUES
  ('S=C(Nc1ccc(Cl)cc1Cl)N(c1cccc(Cl)c1)c1nc2ccccc2s1', 'normalized growth', 0.885),
  ('CC(=O)CSc1nnc(-c2ccc(C(C)(C)C)cc2)n1-c1ccc(Cl)cc1', 'normalized growth', 0.969);

Ask: Specify reported normalized growth for the compound shown: N#Cc1ccc(S(=O)(=O)Nc2ccccc2Oc2ccc(Cl)cc2Cl)cc1
Result: 0.959

Ask: Specify reported normalized growth for the compound shown: Cc1ccccc1C(=O)Oc1ccc(C(F)(F)F)cc1[N+](=O)[O-]
Result: 0.925
